# Tested on: human corpus cavernosum tissue
# method summary: Relaxation of isolated human corpus cavernosum tissue precontracted with norepinephrine
# Type: cell-based
# conditions used: Homo sapiens; relaxation of tissue precontracted with 10^−6 M norepinephrine; n=8

>  <compound>
CCCCC[C@H](O)/C=C/[C@H]1[C@H](O)CC(=O)[C@@H]1CCCCCCC(=O)O [PGE1, prostaglandin E1, reference compound]

>  <value units>
nM

>  <EC50>
250

$$$$

====

# Test system: cat eyes
# method summary: Irritant effect in cat eyes (behavioural model, eyelid closure)
# Format: in vivo
# conditions used: Dose 10 μg topically on eye; scale 0-3; Mean ± SEM (n = 3-6)
Examples of molecules with documented Maximum irritative effect follow.
measure: Maximum irritative effect

>  <molecule>
CCCCC[C@H](O)/C=C/[C@H]1[C@H](O)CC(=O)[C@@H]1CCCCCCC(=O)O [PGE1, prostaglandin E1, reference compound]

>  <measure>
Maximum irritative effect

>  <experimental result>
3.0

$$$$
>  <molecule>
COC(=O)CCC/C=C\C[C@H]1C(=O)C[C@@H](O)[C@@H]1/C=C/[C@@H](O)CCCCCO [20-OH-PGE2-me, 20-OH-Prostaglandin E2-Methyl Ester]

>  <measure>
Maximum irritative effect

>  <experimental result>
1.2

$$$$
>  <molecule>
CCC(O)CC[C@H](O)/C=C/[C@H]1[C@H](O)CC(=O)[C@@H]1C/C=C\CCCC(=O)OC (stereo partly shown) [18RS-OH-PGE2-me, 18RS-Hydroxy PGE2 Methyl Ester]

>  <measure>
Maximum irritative effect

>  <experimental result>
0.0

$$$$
>  <molecule>
COC(=O)CCC/C=C\C[C@H]1C(=O)C[C@@H](O)[C@@H]1/C=C/[C@@H](O)CCC[C@@H](C)O [19R-OH-PGE2-me]

>  <measure>
Maximum irritative effect

>  <experimental result>
0.1

$$$$

====

# method summary: log P estimated by thin layer chromatography
# Assay type: physicochemical
# conditions used: estimated from thin layer chromatography with PGF2α isopropyl ester as reference
measure: chromatographic logP

>  <compound>
CCCCC[C@H](O)/C=C/[C@H]1[C@H](O)CC(=O)[C@@H]1CCCCCCC(=O)O [PGE1, prostaglandin E1, reference compound]

>  <experimental result>
0.7

$$$$

Source: patent US6476074B1
